# experiment-summary: viability loss with induced miR-34 in A549 – imaging, A549 dox-inducible miR-34, nuclei and caspase counts, primary screen (AID 1347080); note: test concentration not given here
# condition-summary: A549 miR-34 inducible, Hoechst nuclei count, 48 h; active compounds read low; cell number ratio, induced over uninduced
// assign Y if fold change falls strictly below 0.9, else N (ties count as N)

compound	class-name
CC1(C)S[C@@H]2[C@H](NC(=O)[C@H](N)c3ccccc3)C(=O)N2[C@H]1C(=O)OC1OC(=O)c2ccccc21 (stereo partly specified)	N
COc1cc(F)ccc1C(=O)N1CCc2[nH]nc(Cc3ccccc3)c2C1	Y
CC1COC(Nc2ccc3ncnc(Nc4ccc(OCc5nccs5)c(Cl)c4)c3c2)=N1 (stereo unspecified)	Y
COC(=O)C(N)Cc1ccc(Cl)cc1 (stereo unspecified)	N
COCC(=O)NCC=Cc1ccc2ncnc(Nc3ccc(Oc4ccc(C)nc4)c(C)c3)c2c1	Y

Hello, is fold change of the following compound strictly smaller than 0.9? `COc1cccc(-c2cccc(N)n2)c1F`
N

Proceed to O=C(CCCCCN1CCN(c2ccccc2-c2ccccc2)CC1)NC1CCCc2ccccc21 (stereo unspecified)
N

CN(CC1COCCO1)S(=O)(=O)Nc1ccc2ccc3ncc(-c4cnn(C)c4)cc3c(=O)c2c1 (stereo unspecified) ?
Y

Same read-out for `O=C(O)c1ccc(N2C(=O)C(=Cc3ccc(-c4ccc([N+](=O)[O-])cc4)o3)C=C2c2ccccc2)cc1` ?
Y

Try `CC(=O)C=Cc1cn(C)c2ccccc12` next.
Y

Entry `CNc1ccnc(-c2cnn(CC(=O)Nc3cc(C)nn3C)c2)n1` please
Y

Would you mind doing `CC(C)C(=O)N1CCC(CNC(=O)c2ccno2)CC1` as well?
N

Item: `CS(=O)(=O)c1ccc(-n2nc(C(F)(F)F)cc2-c2ccc(F)cc2)cc1`
N

And for C=C1C(=CC=C2CCC[C@@]3(C)[C@H]2CC[C@H]3C(C)C=CC(C)C(C)C)CC(O)CC1O (stereo partly specified) ?
N

// query: `CCSC(N)=Nc1ccc(C(F)(F)F)cc1`
N

Follow-up entry: C=CCC1C=C(C)CC(C)CC(OC)C2O[C@@](O)(C(=O)C(=O)N3CCCCC3C(=O)OC(C(C)=CC3CCC(O)C(OC)C3)C(C)C(O)CC1=O)C(C)CC2OC (stereo partly specified)
N

The reported numbers originate from PubChem BioAssay.
